B1: Fatty acid-binding protein, intestinal, P02693 (parent)
chain: MAFDGTWKVDRNENYEKFMEKMGINVVKRKLGAHDNLKLTITQEGNKFTVKESSNFRNIDVVFELGVDFAYSLADGTELTGTWTMEGNKLVGKFKRVDNGKELIAVREISGNELIQTYTYEGVEAKRIFKKE

- Variants of: B1
- assayContext: Rattus norvegicus; pH 7.3; 20 °C; GdnHCl; Fluorescence; potassium phosphate 20 mM; structure 1IFB; whole UniProt chain shown
Can you tell me denaturant midpoint (higher = more stable) for the items I'm about to list?
Answers are plain numbers, in M.

Look over these answered cases.
{"residues": "MAFDGTWKVDRNENYEKFMEKMGINVVKRKLGAHDNLKLTITQEGNKFTVKESSNFRNIDVVFELGVDFAYSLADGTELTGTWTMEGNKLVGKFKRVDNGKELIAVREISPNELIQTYTYEGVEAKRIFKKE [G111P]", "reportedMeasurement": 1}
{"residues": "MAFDGTWKVDRNENYEKFMEKMGINVVKRKLGAHDNLKLTITQEGNKFTVKESSNFRNIDVVFELGVDFAYSLADGTELTGTWTMEGNKLVGKFKRVDNPKELIAVREISGNELIQTYTYEGVEAKRIFKKE [G100P]", "reportedMeasurement": 0.7}
{"residues": "MAFDGTWKVDRNENYEKFMEKMGINVVKRKLGAHDNLKLTITQEPNKFTVKESSNFRNIDVVFELGVDFAYSLADGTELTGTWTMEGNKLVGKFKRVDNGKELIAVREISGNELIQTYTYEGVEAKRIFKKE [G45P]", "reportedMeasurement": 0.8}
{"residues": "MAFDGTWKVDRNENYEKFMEKMGINVVKRKLGAHDNLKLTITQEGNKFTVKESSNFRNIDVVFELGVDFAYSLADGTELTGTWTMEGNKLVGKFKRVDNGKELIAVREISGNELIQTYTYEPVEAKRIFKKE [G122P]", "reportedMeasurement": 0.6}

Asked: Respond only with denaturant midpoint (higher = more stable) recorded for MAFDGTWKVDRNENYEKFMEKMGINVVKRKLGAHDNLKLTITQEGNKFTVKESSNFRNIDVVFELPVDFAYSLADGTELTGTWTMEGNKLVGKFKRVDNGKELIAVREISGNELIQTYTYEGVEAKRIFKKE [G66P]
Given back: 0.9

Data origin: FireProtDB (doi:10.1021/bi012042l)
